test: Clearance in rat; format: ADME, organism-based; conditions: in vivo
Recorded clearance values for a group of compounds are listed next.
EXPERIMENTAL READOUT: clearance (mL/min/kg)

> print(dat)
                            smiles.text  numeric.result
1     Clc1ncn2c1Cn1ncnc1-c1cc(Br)ccc1-2             9.7
2      Cc1ncn2c1Cn1ncnc1-c1cc(Cl)ccc1-2             7.2
3  FC(F)c1ncn2c1Cn1ncnc1-c1cc(Cl)ccc1-2             3.8
4   Clc1ccc2c(c1)-c1ncnn1Cc1c(Cl)ncn1-2            12.4
5  FC(F)c1ncn2c1Cn1ncnc1-c1cc(Br)ccc1-2             2.9
6      Cc1ncn2c1Cn1ncnc1-c1cc(Br)ccc1-2             0.6

---

Target: GABA-A receptor; alpha-5/beta-3/gamma-2 (Homo sapiens, UniProt P18507+P28472+P31644)
Sequence (P18507 whole entry): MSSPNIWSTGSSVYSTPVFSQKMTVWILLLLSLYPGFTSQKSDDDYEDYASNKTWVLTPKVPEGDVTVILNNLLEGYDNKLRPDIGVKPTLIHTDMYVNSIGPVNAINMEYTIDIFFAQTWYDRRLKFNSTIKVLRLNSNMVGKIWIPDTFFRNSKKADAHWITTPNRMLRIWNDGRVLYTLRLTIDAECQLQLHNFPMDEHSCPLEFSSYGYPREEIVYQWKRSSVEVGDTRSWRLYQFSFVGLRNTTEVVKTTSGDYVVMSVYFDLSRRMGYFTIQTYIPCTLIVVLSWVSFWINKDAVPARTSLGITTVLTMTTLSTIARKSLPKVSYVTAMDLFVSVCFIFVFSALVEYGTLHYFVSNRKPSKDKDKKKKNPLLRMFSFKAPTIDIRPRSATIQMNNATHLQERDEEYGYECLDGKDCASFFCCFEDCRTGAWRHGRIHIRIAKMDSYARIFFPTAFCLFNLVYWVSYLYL
Sequence (P28472 whole entry): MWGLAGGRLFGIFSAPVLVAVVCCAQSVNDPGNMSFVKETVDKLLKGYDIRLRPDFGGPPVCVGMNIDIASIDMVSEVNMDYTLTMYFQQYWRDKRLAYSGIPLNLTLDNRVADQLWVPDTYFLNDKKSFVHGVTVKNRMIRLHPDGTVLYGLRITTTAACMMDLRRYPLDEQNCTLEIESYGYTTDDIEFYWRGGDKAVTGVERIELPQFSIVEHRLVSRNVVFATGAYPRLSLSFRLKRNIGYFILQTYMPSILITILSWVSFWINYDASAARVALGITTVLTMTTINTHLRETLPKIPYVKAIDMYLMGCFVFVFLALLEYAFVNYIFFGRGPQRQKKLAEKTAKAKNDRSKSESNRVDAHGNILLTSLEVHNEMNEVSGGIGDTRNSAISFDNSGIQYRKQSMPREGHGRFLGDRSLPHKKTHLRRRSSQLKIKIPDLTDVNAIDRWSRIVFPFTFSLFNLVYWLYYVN
Sequence (P31644 whole entry): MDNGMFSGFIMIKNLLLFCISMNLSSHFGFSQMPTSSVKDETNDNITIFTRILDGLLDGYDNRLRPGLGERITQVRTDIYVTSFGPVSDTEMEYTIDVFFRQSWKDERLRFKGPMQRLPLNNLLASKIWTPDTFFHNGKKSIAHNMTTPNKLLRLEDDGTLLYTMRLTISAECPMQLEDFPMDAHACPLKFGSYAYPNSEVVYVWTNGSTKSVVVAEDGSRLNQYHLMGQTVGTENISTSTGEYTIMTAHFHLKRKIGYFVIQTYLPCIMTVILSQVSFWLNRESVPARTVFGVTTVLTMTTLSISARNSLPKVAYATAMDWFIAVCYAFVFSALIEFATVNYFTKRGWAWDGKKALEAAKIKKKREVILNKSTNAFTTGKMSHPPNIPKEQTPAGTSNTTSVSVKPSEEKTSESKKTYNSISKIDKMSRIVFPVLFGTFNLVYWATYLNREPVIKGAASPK
Test: Displacement of [3H]Flumazenil from cloned human GABA alpha-5-beta-3-gamma-2 receptor expressed in HEK293 cells
Format: cell-based
Ki strictly less than 3 nM = y. Otherwise n.

> print(dat)
                                 smiles.text  group
 1      FC(F)c1ncn2c1Cn1ncnc1-c1cc(Cl)ccc1-2      n
 2   Clc1ncn2c1Cn1ncnc1-c1cc(-n3ccnc3)ccc1-2      n
 3  Cn1nccc1-c1ncn2c1Cn1ncnc1-c1cc(Br)ccc1-2      n
 4         Clc1ncn2c1Cn1ncnc1-c1cc(Br)ccc1-2      y
 5          Cc1ncn2c1Cn1ncnc1-c1c(Cl)cccc1-2      y
 6           Cc1ncn2c1Cn1ncnc1-c1cccc(F)c1-2      n
 7         Cc1ccc2c(c1)-c1ncnn1Cc1c(C)ncn1-2      n
 8       Clc1ccc2c(c1)-c1ncnn1Cc1c(Cl)ncn1-2      y
 9  Cc1cccc(-c2ncn3c2Cn2ncnc2-c2cc(Cl)ccc2-3)n1      n
10   Cc1ncn2c1Cn1ncnc1-c1cc(OC(F)(F)F)ccc1-2      n
11        CCCc1ncn2c1Cn1ncnc1-c1cc(Cl)ccc1-2      y
